Test system: HepG2-A16-CD81EGFP cells
Test: cells
Conditions: Homo sapiens, HepG2, read-out: HepG2 Tox% @ 50 uM rep1
Measured attribute: cytotoxicity at 50 µM (%)

[[record]]
compound = "CC(Oc1ccc(NC(=O)c2cccs2)cc1)C(=O)c1ccc(Cl)cc1 (centres unmarked) [MMV665886]"
experimental_result = 82

[[record]]
compound = "O=C(Nc1ccc(-c2nc3ccccc3[nH]2)cc1)c1ccc(Cl)c(Cl)c1 [MMV665840]"
experimental_result = -7

[[record]]
compound = "Cc1ccc(-c2cc3c(SCC(=O)Nc4cc(C(F)(F)F)ccc4Cl)nccn3n2)cc1 [MMV396680]"
experimental_result = -4

[[record]]
compound = "CN1CCN(c2ccc(Nc3c4ccccc4nc4ccccc34)cc2)CC1 [MMV006172]"
experimental_result = 97

[[record]]
compound = "FC(F)(F)c1cccc(Nc2nc3ccccc3nc2Nc2cccc(C(F)(F)F)c2)c1 [MMV665794]"
experimental_result = 100

[[record]]
compound = "O=C(NCc1ccco1)C1CCN(S(=O)(=O)c2ccc(Cl)cc2)CC1 [MMV006188]"
experimental_result = 22

[[record]]
compound = "CC(=O)c1sc(NC(=O)Nc2ccc(C)cc2C)nc1C [MMV665894]"
experimental_result = -26

[[record]]
compound = "CCOc1ccc(C=Cc2nc(=O)c3ccccc3o2)cc1 [MMV665940]"
experimental_result = 19

[[record]]
compound = "c1ccc(-c2ccc(-c3nc4ccccc4[nH]3)cc2)cc1 [MMV665891]"
experimental_result = 39

[[record]]
compound = "O=C(CSc1nccn2nc(-c3ccccc3)cc12)Nc1cc(C(F)(F)F)ccc1Cl [MMV396678]"
experimental_result = -13

[[record]]
compound = "COc1cc(CNCCc2ccc(Cl)cc2)cc(OC)c1O [MMV128432]"
experimental_result = -13

[[record]]
compound = "Cc1ccc(Cn2c(N3CCC(C(=O)NCc4cccs4)CC3)nc3ccccc32)cc1 [MMV007564]"
experimental_result = 97

[[record]]
compound = "c1ccc2cc3c(Nc4ccc(N5CCOCC5)cc4)ccnc3cc2c1 [MMV006861]"
experimental_result = 78

[[record]]
compound = "CC(C)(C)c1ccc(O)c(CNC2CCCCC2)c1 [MMV665785]"
experimental_result = 97

[[record]]
compound = "COc1ccc2c(c1)C1(Nc3ccccc3-c3nc4ccccc4n31)C(=O)N2 (centres unmarked) [MMV396749]"
experimental_result = 88

[[record]]
compound = "Cc1ccc(NC(=O)Nc2cccc(Cl)c2)cc1F [MMV000911]"
experimental_result = 85

[[record]]
compound = "CCOc1c(Cl)cc(CNCC(O)c2ccccc2)cc1OC (centres unmarked) [MMV396632]"
experimental_result = 82

[[record]]
compound = "Cc1ccc(Nc2nc(-c3ccccn3)cs2)cc1 [MMV007907]"
experimental_result = 93

[[record]]
compound = "Cc1c(C)n(Cc2ccc(F)cc2)c2ccc(C(=O)NCc3ccco3)cc12 [MMV008149]"
experimental_result = 9

[[record]]
compound = "Cc1cc(C=C2SC(=Nc3ccccc3)N(C3CCCC3)C2=O)c(C)n1-c1ccc(Cl)cc1 [MMV666688]"
experimental_result = -4.47

[[record]]
compound = "CCOc1cc2c(cc1OCC)C(c1cc(OC)c(O)cc1Cl)NCC2 (centres unmarked) [MMV008956]"
experimental_result = -6.54

[[record]]
compound = "Cc1sc(NC(=O)c2ccccc2)c(C(c2cccs2)N2CCN(c3ccccc3)CC2)c1C (centres unmarked) [MMV396652]"
experimental_result = 14

[[record]]
compound = "O=C(NCCCN1CCC(N2CCCCC2)CC1)C1=Cc2cc(Br)ccc2OC1 [MMV019995]"
experimental_result = 100

[[record]]
compound = "CC(NCc1ccccc1)c1cc(Cl)ccc1O (centres unmarked) [MMV665789]"
experimental_result = 72

[[record]]
compound = "Cc1ccc(OCCCCCCNCCO)c(C)c1 [MMV666020]"
experimental_result = 90

[[record]]
compound = "C[n+]1c2ccccc2nc2ccc(NCCO)cc21 [MMV396693]"
experimental_result = 81

[[record]]
compound = "CCOC(=O)C1=CN(C)C=C(C(=O)OCC)C1c1cc(Br)c(OCC)c(OC)c1 [MMV006656]"
experimental_result = 50

[[record]]
compound = "c1ccc2c(NCCc3c[nH]c4ccccc34)c3ccccc3nc2c1 [MMV006513]"
experimental_result = 97

[[record]]
compound = "CCOC(=O)c1c(C)n(-c2ccccc2)c2ccc(OC(=O)c3cc(OC)c(OC)c(OC)c3)cc12 [MMV396664]"
experimental_result = 61

[[record]]
compound = "COc1cccc(C(=O)Nc2ccc(-c3nc4ccccc4[nH]3)cc2)c1 [MMV019762]"
experimental_result = -16

[[record]]
compound = "c1ccc(Cn2c(N=Nc3c(Nc4ccccc4)ccc4ccccc34)nc3ccccc32)cc1 [MMV666023]"
experimental_result = 83

[[record]]
compound = "CCCCNc1nc(NC(C)(C)C)nc(NC(C)(C)C)n1 [MMV665864]"
experimental_result = 41

[[record]]
compound = "Cc1cccc(-n2ncc3c(=O)[nH]c(-n4nc(C)cc4NC(=O)c4cc5ccccc5o4)nc32)c1 [MMV403679]"
experimental_result = 38

[[record]]
compound = "Cc1ccc(CSCc2ccc(C(=O)NC3CC3)o2)cc1 [MMV007571]"
experimental_result = 66

[[record]]
compound = "Cc1ccnc(NC(c2cccc(OCc3ccccc3)c2)c2ccc3cccnc3c2O)c1 (centres unmarked) [MMV000720]"
experimental_result = 99

[[record]]
compound = "Cc1cc(Nc2ccc(C)c(Cl)c2)n2nc(C(F)(F)F)nc2n1 [MMV665874]"
experimental_result = 93

[[record]]
compound = "O=C(Nc1ccc(Cl)c(Cl)c1)Nc1ccc(Cl)c(Cl)c1 [MMV665852]"
experimental_result = 100

[[record]]
compound = "O=[N+]([O-])c1ccc(C=NNc2nc3ccccc3[nH]2)cc1 [MMV666607]"
experimental_result = 14

